Measured IC50, listed per entry.
studyTarget: proteasome chymotrypsin-like activity (CT-L) (Homo sapiens)
Construct: endogenous in cells
Sequence (P28074 60-263): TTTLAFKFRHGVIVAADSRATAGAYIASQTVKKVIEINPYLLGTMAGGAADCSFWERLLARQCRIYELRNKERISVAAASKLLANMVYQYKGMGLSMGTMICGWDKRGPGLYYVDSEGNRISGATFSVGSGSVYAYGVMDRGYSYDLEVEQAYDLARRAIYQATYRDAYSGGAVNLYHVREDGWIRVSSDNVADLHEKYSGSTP
assay: Cell-based CT-L proteasome activity inhibition

Some solved entries appear below for comparison.
smilesInput	studyTarget	IC50
Cc1nn(C)c(C)c1S(=O)(=O)N[C@@H](CCc1ccccc1)C(=O)N[C@@H](CC(C)C)C(=O)N[C@@H](Cc1ccccc1)C(=O)N[C@@H](CC(C)C)C(=O)[C@@]1(C)CO1	proteasome chymotrypsin-like activity (CT-L) (Homo sapiens)	< 100 nM
CC(C)C[C@H](NC(=O)[C@H](CCc1ccccc1)NC(=O)CN1CCCCC1)C(=O)N[C@@H](Cc1ccccc1)C(=O)N[C@@H](CC(C)C)C(=O)[C@@]1(C)CO1	proteasome chymotrypsin-like activity (CT-L) (Homo sapiens)	< 100 nM
CC(C)C[C@H](NC(=O)[C@H](CCc1ccccc1)NC(=O)CO)C(=O)N[C@@H](Cc1ccccc1)C(=O)N[C@@H](CC(C)C)C(=O)[C@@]1(C)CO1	proteasome chymotrypsin-like activity (CT-L) (Homo sapiens)	< 100 nM

In the following, a different molecule is considered.
query: What does the record list as IC50 for CC(C)C[C@H](NC(=O)[C@H](CCc1ccccc1)NC(=O)CCCN(C)C)C(=O)N[C@@H](Cc1ccccc1)C(=O)N[C@@H](CC(C)C)C(=O)[C@@]1(C)CO1 ?
result: < 150 nM

###

Listing of entries alongside the reported IC50.
studyTarget: 20S proteasome chymotrypsin-like activity (CT-L) (Homo sapiens, UniProt P20618+P28074)
assay: 20S proteasome chymotrypsin-like (CT-L) activity inhibition
experimentalParameters: chymotrypsin-like activity of 20S proteasome

Here is how some molecules turned out for IC50.
molecule	studyTarget	IC50
CC(C)C[C@H](NC(=O)[C@H](CCc1ccccc1)NC(=O)CN1CCCCC1)C(=O)N[C@@H](Cc1ccccc1)C(=O)N[C@@H](CC(C)C)C(=O)[C@@]1(C)CO1 [Compound 4]	20S proteasome chymotrypsin-like activity (CT-L) (Homo sapiens, UniProt P20618+P28074)	< 100 nM
CC(C)C[C@H](NC(=O)[C@H](CCc1ccccc1)NC(=O)CO)C(=O)N[C@@H](Cc1ccccc1)C(=O)N[C@@H](CC(C)C)C(=O)[C@@]1(C)CO1 [Compound 1]	20S proteasome chymotrypsin-like activity (CT-L) (Homo sapiens, UniProt P20618+P28074)	< 50 nM

query: Data request, read-out IC50, for Cc1nn(C)c(C)c1S(=O)(=O)N[C@@H](CCc1ccccc1)C(=O)N[C@@H](CC(C)C)C(=O)N[C@@H](Cc1ccccc1)C(=O)N[C@@H](CC(C)C)C(=O)[C@@]1(C)CO1 [Compound 8]
result: < 100 nM

query: Quick one: CC(C)C[C@H](NC(=O)[C@H](CCc1ccccc1)NC(=O)CCCN(C)C)C(=O)N[C@@H](Cc1ccccc1)C(=O)N[C@@H](CC(C)C)C(=O)[C@@]1(C)CO1 [Compound 7]
result: < 50 nM
